Record form. Attribute: OD450. Fill in for each entry.
# measured target: T1, human NMI (N-myc Interacting protein), recombinant protein (human, UniProt Q13287 1-307, limits assumed)
# T1 construct: Gene ID: 9111; also called hNMI; antigen
# T1 sequence (looked up): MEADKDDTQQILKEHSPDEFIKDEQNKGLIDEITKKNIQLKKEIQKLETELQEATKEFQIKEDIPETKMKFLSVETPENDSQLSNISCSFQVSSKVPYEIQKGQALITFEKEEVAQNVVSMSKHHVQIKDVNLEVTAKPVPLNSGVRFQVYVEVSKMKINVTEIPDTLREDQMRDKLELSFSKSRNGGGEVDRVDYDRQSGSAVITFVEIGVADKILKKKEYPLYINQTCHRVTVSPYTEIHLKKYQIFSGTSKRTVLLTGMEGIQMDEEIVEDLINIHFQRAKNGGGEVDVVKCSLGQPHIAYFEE
# assay info: sandwich ELISA; detection 94C4-1-biotin 0.5µg/mL; hNMI 25,000.000 pg/mL
Give bare numbers, in OD450.

monoclonal antibody 39B4 (antibody, V domains shown, Rabbit monoclonal antibody; also called 39B4-1) VH: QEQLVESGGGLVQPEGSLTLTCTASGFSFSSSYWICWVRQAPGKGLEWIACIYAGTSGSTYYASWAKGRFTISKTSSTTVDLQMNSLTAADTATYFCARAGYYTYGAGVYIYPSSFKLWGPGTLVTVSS VL: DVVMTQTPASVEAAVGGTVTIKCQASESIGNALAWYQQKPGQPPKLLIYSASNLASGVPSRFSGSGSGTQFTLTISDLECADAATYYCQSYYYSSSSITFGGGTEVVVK; 2.75
monoclonal antibody B-8 (antibody, V domains shown, Rabbit monoclonal antibody; also called B8-1) VH: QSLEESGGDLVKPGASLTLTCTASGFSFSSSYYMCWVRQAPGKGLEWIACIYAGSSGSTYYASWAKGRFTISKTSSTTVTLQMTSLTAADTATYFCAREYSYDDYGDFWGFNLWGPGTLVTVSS VL: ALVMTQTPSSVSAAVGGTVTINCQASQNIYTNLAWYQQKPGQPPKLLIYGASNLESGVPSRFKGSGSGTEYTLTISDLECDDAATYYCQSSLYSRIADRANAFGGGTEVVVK; 2.71
monoclonal antibody 240B10-1 (antibody, V domains shown, Rabbit monoclonal antibody) VH: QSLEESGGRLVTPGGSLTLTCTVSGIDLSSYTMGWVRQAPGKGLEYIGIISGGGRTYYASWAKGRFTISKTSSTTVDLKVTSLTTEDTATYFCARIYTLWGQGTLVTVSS VL: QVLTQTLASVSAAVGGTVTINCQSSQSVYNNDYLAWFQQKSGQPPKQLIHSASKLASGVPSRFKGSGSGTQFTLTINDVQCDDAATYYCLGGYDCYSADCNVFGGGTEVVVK; 2.94

Would you kindly look at the next entry?
Prompt: Entry under review: monoclonal antibody 98G10 (antibody, V domains shown, Rabbit monoclonal antibody) VH: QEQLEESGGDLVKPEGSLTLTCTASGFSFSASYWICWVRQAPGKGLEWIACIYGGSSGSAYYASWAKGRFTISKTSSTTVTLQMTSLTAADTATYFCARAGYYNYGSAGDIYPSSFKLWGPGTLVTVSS VL: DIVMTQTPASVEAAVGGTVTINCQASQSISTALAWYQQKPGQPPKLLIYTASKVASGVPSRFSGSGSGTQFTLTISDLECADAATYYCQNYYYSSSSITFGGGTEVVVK . Reported OD450?
Response: 2.87
